Reference source for all entries: paper PMC7126831

TARGET: UniProt:P0C6U8
METRIC_NAME: IC50

(Q) Return IC50 measured with UniProt:P0C6U8 given this compound: COc1cc(C2CC(=O)c3c(cc(O)c(C/C=C(\C)CCC=C(C)C)c3O)O2)cc(OC)c1O (stereo not shown)
(A) 13.9 µM
